System: HCT-116
PROCEDURE_DETAILS: In vitro cytotoxic activity against human colon HCT116 cell line
Format: functional, cell-based
Parameter IC50: see the listing below.

{"TEST_SMILES": "CCN(CC)CCn1nc2c3c(c4c(cc31)OC(C)(C)C=C4)Oc1ccccc1-2", "READOUT_UNIT": "µM", "IC50": 40}
{"TEST_SMILES": "COc1cccc2c1Oc1c3c(cc4c1c-2nn4CCN(C)C)OC(C)(C)C=C3", "READOUT_UNIT": "µM", "IC50": 51}
{"TEST_SMILES": "CN(C)CCn1nc2c3c(c4c(cc31)OC(C)(C)C=C4)Oc1ccccc1-2", "READOUT_UNIT": "µM", "IC50": 54}
{"TEST_SMILES": "CCN(CC)CCn1nc2c3c(c4c(cc31)OC(C)(C)C=C4)Oc1c(OC)cccc1-2", "READOUT_UNIT": "µM", "IC50": 41}
{"TEST_SMILES": "COc1cccc2c1Oc1c3c(cc4c1c-2nn4CCO)OC(C)(C)C=C3", "READOUT_UNIT": "µM", "IC50": 64}

---

System: A549
PROCEDURE_DETAILS: In vitro cytotoxic activity against human lung A549 cell line)
Type: functional, cell-based
pIC50: −log10 of the molar value.

{"TEST_SMILES": "COc1cc2c(c3c1c(=O)c1ccccc1n3C)C=CC(C)(C)O2", "pIC50": "< 4.00"}

---

Test system: Calf thymus DNA
PROCEDURE_DETAILS: In vitro inhibition of calf thymus DNA/ethidium bromide complex formation.
Format: nucleic-acid assay
MEASURED_ENDPOINT: EC50 (µM)

{"TEST_SMILES": "COc1cccc2c1Oc1c3c(cc4c1c-2nn4CCN(C)C)OC(C)(C)C=C3", "MEASURED_ENDPOINT": "EC50", "RESULT": 150}
{"TEST_SMILES": "CCN(CC)CCn1nc2c3c(c4c(cc31)OC(C)(C)C=C4)Oc1c(OC)cccc1-2", "MEASURED_ENDPOINT": "EC50", "RESULT": 273}
{"TEST_SMILES": "COc1cccc2c1Oc1c3c(cc4c1c-2nn4CCN1CCCCC1)OC(C)(C)C=C3", "MEASURED_ENDPOINT": "EC50", "RESULT": 290}
{"TEST_SMILES": "CN(C)CCn1nc2c3c(c4c(cc31)OC(C)(C)C=C4)Oc1ccccc1-2", "MEASURED_ENDPOINT": "EC50", "RESULT": 431}
{"TEST_SMILES": "COc1cccc2c1Oc1c3c(cc4c1c-2nn4CCO)OC(C)(C)C=C3", "MEASURED_ENDPOINT": "EC50", "RESULT": 274}

---

Parameter EC50: see the listing below.
System: Calf thymus DNA
PROCEDURE_DETAILS: In vitro inhibition of calf thymus DNA/ethidium bromide complex formation.
Assay type: nucleic-acid assay

{"COMPOUND": "Cc1c2ccncc2c(C)c2c1[nH]c1ccccc12 [ELLIPTECINE]", "READOUT_UNIT": "µM", "INEQUALITY_SIGN": "=", "EC50": 22.2}
{"COMPOUND": "CC1(C)C=Cc2c(cc3c4c(nn3CCOS(C)(=O)=O)-c3ccccc3Sc24)O1", "READOUT_UNIT": "µM", "INEQUALITY_SIGN": ">", "EC50": 500}
{"COMPOUND": "COc1cc2c(c3c1c(=O)c1ccccc1n3C)C=CC(C)(C)O2 [ACRONINE]", "READOUT_UNIT": "µM", "INEQUALITY_SIGN": "=", "EC50": 270}
{"COMPOUND": "COc1cccc2c1Oc1c3c(cc4c1c-2nn4CCN1CCCC1)OC(C)(C)C=C3", "READOUT_UNIT": "µM", "INEQUALITY_SIGN": "=", "EC50": 71.7}
{"COMPOUND": "O=C1c2c(O)ccc(O)c2C(=O)c2c(NCCNCCO)ccc(NCCNCCO)c21 [MITOXANTRONE]", "READOUT_UNIT": "µM", "INEQUALITY_SIGN": "=", "EC50": 3.4}

---

Parameter IC50: see the listing below.
Tested on: HCT-116
PROCEDURE_DETAILS: In vitro cytotoxic activity against human colon HCT116 cell line
Format: functional, cell-based
MEASURED_ENDPOINT: IC50 (µM)

{"TEST_SMILES": "CC1(C)C=Cc2c(cc3c4c(nn3CCN3CCCCC3)-c3ccccc3Oc24)O1", "INEQUALITY_SIGN": "=", "RESULT": 20}
{"TEST_SMILES": "CC1(C)C=Cc2c(cc3c4c(nn3CCO)-c3ccccc3Oc24)O1", "INEQUALITY_SIGN": "=", "RESULT": 28}
{"TEST_SMILES": "COc1cccc2c1Oc1c3c(cc4c1c-2nn4CCN1CCCC1)OC(C)(C)C=C3", "INEQUALITY_SIGN": "=", "RESULT": 43}
{"TEST_SMILES": "COc1cccc2c1Oc1c3c(cc4c1c-2nn4CCN1CCCCC1)OC(C)(C)C=C3", "INEQUALITY_SIGN": "=", "RESULT": 54}
{"TEST_SMILES": "COc1cc2c(c3c1c(=O)c1ccccc1n3C)C=CC(C)(C)O2", "INEQUALITY_SIGN": ">", "RESULT": 100}
{"TEST_SMILES": "CC1(C)C=Cc2c(cc3c4c(nn3CCN3CCCC3)-c3ccccc3Oc24)O1", "INEQUALITY_SIGN": "=", "RESULT": 42}

---

Test system: HRT-18 cell line
PROCEDURE_DETAILS: In vitro inhibition of HRT-18 (human colon) cell proliferation.
Type: functional, cell-based
pIC50: −log10 of the molar value.
Parameter pIC50: see the listing below.

{"TEST_SMILES": "CC1(C)C=Cc2c(cc3c4c(nn3CCN3CCCC3)-c3ccccc3Oc24)O1", "INEQUALITY_SIGN": "=", "pIC50": 4.52}
{"TEST_SMILES": "COc1cccc2c1Oc1c3c(cc4c1c-2nn4CCN1CCCC1)OC(C)(C)C=C3", "INEQUALITY_SIGN": "=", "pIC50": 4.22}
{"TEST_SMILES": "CC1(C)C=Cc2c(cc3c4c(nn3CCO)-c3ccccc3Oc24)O1", "INEQUALITY_SIGN": "=", "pIC50": 5.40}
{"TEST_SMILES": "CC1(C)C=Cc2c(cc3c4c(nn3CCN3CCCCC3)-c3ccccc3Oc24)O1", "INEQUALITY_SIGN": "=", "pIC50": 5.00}
{"TEST_SMILES": "CN(C)CCn1nc2c3c(c4c(cc31)OC(C)(C)C=C4)Oc1ccccc1-2", "INEQUALITY_SIGN": "=", "pIC50": 4.30}
{"TEST_SMILES": "COc1cccc2c1Oc1c3c(cc4c1c-2nn4CCN(C)C)OC(C)(C)C=C3", "INEQUALITY_SIGN": "=", "pIC50": 4.77}
{"TEST_SMILES": "CCN(CC)CCn1nc2c3c(c4c(cc31)OC(C)(C)C=C4)Oc1c(OC)cccc1-2", "INEQUALITY_SIGN": "=", "pIC50": 4.52}
{"TEST_SMILES": "COc1cccc2c1Oc1c3c(cc4c1c-2nn4CCN1CCCCC1)OC(C)(C)C=C3", "INEQUALITY_SIGN": "=", "pIC50": 4.92}
{"TEST_SMILES": "COc1cccc2c1Oc1c3c(cc4c1c-2nn4CCO)OC(C)(C)C=C3", "INEQUALITY_SIGN": "<", "pIC50": 4.00}
{"TEST_SMILES": "CCN(CC)CCn1nc2c3c(c4c(cc31)OC(C)(C)C=C4)Oc1ccccc1-2", "INEQUALITY_SIGN": "=", "pIC50": 5.30}

---

Tested on: HRT-18 cell line
PROCEDURE_DETAILS: In vitro cytotoxic activity against human colon […] cell line ( standard deviation in parenthesis)
Type: functional, cell-based
MEASURED_ENDPOINT: IC50 (µM)

{"TEST_SMILES": "CC1(C)C=Cc2c(cc3c4c(nn3CCOS(C)(=O)=O)-c3ccccc3Oc24)O1", "READOUT_UNIT": "µM", "RESULT": 22}
{"TEST_SMILES": "CC1(C)C=Cc2c(cc3c4c(nn3CCOS(C)(=O)=O)-c3ccccc3Sc24)O1", "READOUT_UNIT": "µM", "RESULT": 30}
